Where these numbers come from: PubChem BioAssay (EPA / NIEHS)

Read-out: catalase (CAT), CAT (gene 847)
assay_remarks: LTEA_HepaRG_CAT: Life Technologies and Expression Analysis (LTEA) Assay for catalase (CAT) using HepaRG (AID 2283452)
experimental_parameters: mRNA level, 48 h; actives raise or lower the signal
The source made the active and inactive calls. How the source made its calls: active means hit-call score of the fitted dose curve at least 0.9, where 1 is the maximum; inactive means score below 0.9.
Classes used: active, inactive

> print(dat)
                            chemical.smiles  label.value
1  C#CCN1C(=O)COc2cc(F)c(N3C(=O)C4=C(CCCC4)C3=O)cc21     inactive
2                                      N#CN     inactive
3  C[C@H]1[C@H](c2ccc(Cl)cc2)SC(=O)N1C(=O)NC1CCCCC1       active

====

Read-out: Pselectin, SELP (gene 6403)
assay_remarks: BSK_4H_Pselectin: BioMAP Diversity Plus: 4H Assay for Pselectin Biomarker Activity (AID 2283026)
experimental_parameters: primary human endothelial cells (HUVEC); actives raise or lower the signal
Active and inactive are the calls of the source. How the source made its calls: active means hit-call score of the fitted dose curve at least 0.9, where 1 is the maximum; inactive means score below 0.9.
Labels: yes (1) (active), no (0) (inactive)

compound	label_value
CCCN(CCC)c1c([N+](=O)[O-])cc(C(F)(F)F)cc1[N+](=O)[O-]	yes (1)
CCS(=O)(=O)c1cccnc1S(=O)(=O)NC(=O)Nc1nc(OC)cc(OC)n1	no (0)
CNC(=O)CSP(=S)(OC)OC	no (0)
O=C(O)C(F)(F)C(F)(F)C(F)(F)C(F)(F)C(F)(F)C(F)(F)C(F)(F)F	no (0)
N#Cc1c(Cl)c(Cl)c(Cl)c(C#N)c1Cl	yes (1)
CC(C)(C)C(O)C(Oc1ccc(Cl)cc1)n1cncn1 (configuration not stated)	no (0)
COC(=O)c1ccccc1S(=O)(=O)NC(=O)Nc1nc(C)nc(OC)n1	no (0)
CCOc1nc(NC)nc(NC(=O)NS(=O)(=O)c2ccccc2C(=O)OC)n1	no (0)
CC[C@H](C)[C@H]1O[C@]2(C=C[C@@H]1C)C[C@@H]1C[C@@H](C/C=C(\C)[C@@H](O[C@H]3C[C@H](OC)[C@@H](O[C@H]4C[C@H](OC)[C@@H](O)[C@H](C)O4)[C@H](C)O3)[C@@H](C)/C=C/C=C3\CO[C@@H]4[C@H](O)C(C)=C[C@@H](C(=O)O1)[C@]34O)O2 (tested in a mixture with another compound)	yes (1)
CC1(C)C(C=C(Cl)Cl)C1C(=O)OC(C#N)c1ccc(F)c(Oc2ccccc2)c1 (configuration not stated)	no (0)
O=C(O)COc1ccc(Cl)cc1Cl	no (0)
COC(=O)c1ccccc1S(=O)(=O)NC(=O)N(C)c1nc(C)nc(OC)n1	yes (1)
COP(=O)(OC)OC=C(Cl)Cl	yes (1)
N#CN	no (0)
CC(C)OC(=O)Nc1cccc(Cl)c1	no (0)
CCc1ccc(C(=O)NN(C(=O)c2cc(C)cc(C)c2)C(C)(C)C)cc1	no (0)
CNC(=O)Oc1cccc(N=CN(C)C)c1	no (0)

====

Read-out: Matrix Metallopeptidase 1 (MMP1), MMP1 (gene 4312)
assay_remarks: BSK_hDFCGF_MMP1: BioMAP Diversity Plus: hDFCGF Assay for Matrix Metallopeptidase 1 (MMP1) Biomarker Activity (AID 2283064)
experimental_parameters: primary human foreskin fibroblasts; actives raise or lower the signal
Activity calls are given as the source filed them. Rule for the calls: active = hit-call score of the fitted dose curve at least 0.9, where 1 is the maximum; inactive = score below 0.9.
Classes used: t (active), f (inactive)

> print(dat)
                                    molecule  label.value
 1                          CN1CSC(=S)N(C)C1            f
 2  CC(C)(C)C(O)C(Oc1ccc(Cl)cc1)n1cncn1 (stereo not given)            f
 3  C[C@H]1[C@H](c2ccc(Cl)cc2)SC(=O)N1C(=O)NC1CCCCC1            t
 4  CC1(c2ccc(Oc3ccccc3)cc2)OC(=O)N(Nc2ccccc2)C1=O (stereo not given)            f
 5  O=C(O)C(F)(F)C(F)(F)C(F)(F)C(F)(F)C(F)(F)C(F)(F)C(F)(F)F            f
 6    O=[N+]([O-])c1c(Cl)c(Cl)c(Cl)c(Cl)c1Cl            t
 7              CCOCN(C(=O)CCl)c1c(C)cccc1CC            t
 8  [2H]C1([2H])[n+]2ccccc2-c2cccc[n+]2C1([2H])[2H]            t
 9  O=S1OCC2C(CO1)C1(Cl)C(Cl)=C(Cl)C2(Cl)C1(Cl)Cl (stereo not given)            t
10  CC(C)(C)C(O)/C(=C\c1ccc(Cl)cc1Cl)n1cncn1 (stereo not given)            f
11  COc1cc(OC)nc(NC(=O)NS(=O)(=O)c2cc(NC=O)ccc2C(=O)N(C)C)n1            f
12                CNC(=O)Oc1cccc(N=CN(C)C)c1            f
13  CCC(C)(C)C(=O)OC1=C(c2ccc(Cl)cc2Cl)C(=O)OC12CCCCC2            t
14          Cc1[nH]c(=O)n(C(C)(C)C)c(=O)c1Cl            f
15  CCC(C)Nc1c([N+](=O)[O-])cc(C(C)(C)C)cc1[N+](=O)[O-] (stereo not given)            f
16  CCS(=O)(=O)c1cccnc1S(=O)(=O)NC(=O)Nc1nc(OC)cc(OC)n1            f
17                  CC(C)OC(=O)Nc1cccc(Cl)c1            f
18  COC(=O)c1ccccc1S(=O)(=O)NC(=O)Nc1nc(C)nc(OC)n1            f
19            N#Cc1c(Cl)c(Cl)c(Cl)c(C#N)c1Cl            t
20  ClC1C(Cl)C(Cl)C(Cl)C(Cl)C1Cl (stereo not given)            f
21  CCOC1Oc2ccc(OS(C)(=O)=O)cc2C1(C)C (stereo not given)            f
22        COP(=S)(OC)Oc1ccc([N+](=O)[O-])cc1            f
23  O=C(NC(=O)c1c(F)cccc1F)Nc1ccc(OC(F)(F)C(F)OC(F)(F)F)c(Cl)c1 (stereo not given)            f
24          Clc1ccccc1-c1nnc(-c2ccccc2Cl)nn1            f
25  COC(=O)c1ccccc1S(=O)(=O)NC(=O)N(C)c1nc(C)nc(OC)n1            f

====

Read-out: Glutathione S-Transferase (GSTA2), GSTA2 (gene 2939)
assay_remarks: LTEA_HepaRG_GSTA2: Life Technologies and Expression Analysis (LTEA) Assay for Glutathione S-Transferase (GSTA2) using HepaRG (AID 2283497)
experimental_parameters: mRNA level, 48 h; actives raise or lower the signal
Activity calls are given as the source filed them. How the source made its calls: active means hit-call score of the fitted dose curve at least 0.9, where 1 is the maximum; inactive means score below 0.9.
readout: AC50

> print(dat)
                                    compound                               result
 1                     COP(=O)(OC)OC=C(Cl)Cl                             inactive
 2      O=[N+]([O-])/N=C1\NCCN1Cc1ccc(Cl)nc1                     39.9 µM (active)
 3                  CC(C)OC(=O)Nc1cccc(Cl)c1                             inactive
 4            N#Cc1c(Cl)c(Cl)c(Cl)c(C#N)c1Cl                       34 µM (active)
 5  O=S(=O)(O)C(F)(F)C(F)(F)C(F)(F)C(F)(F)C(F)(F)C(F)(F)C(F)(F)C(F)(F)F  76.5 µM (active) [middle of 4 runs]
 6  CCC(C)(C)C(=O)OC1=C(c2ccc(Cl)cc2Cl)C(=O)OC12CCCCC2                             inactive
 7   CCCN(CCOc1c(Cl)cc(Cl)cc1Cl)C(=O)n1ccnc1                     31.8 µM (active)
 8          Cc1[nH]c(=O)n(C(C)(C)C)c(=O)c1Cl                             inactive
 9                    O=C(O)COc1ccc(Cl)cc1Cl                             inactive
10  O=C(O)C(F)(F)C(F)(F)C(F)(F)C(F)(F)C(F)(F)C(F)(F)C(F)(F)F                             inactive
11                CCN(CC)C(=O)SCc1ccc(Cl)cc1                             inactive
12  CC(C)N(C(=O)COc1nnc(C(F)(F)F)s1)c1ccc(F)cc1                       50 µM (active)
13  CCc1ccc(C(=O)NN(C(=O)c2cc(C)cc(C)c2)C(C)(C)C)cc1                             inactive
14               CNC(=O)/C=C(\C)OP(=O)(OC)OC                             inactive
15                      CNC(=O)CSP(=S)(OC)OC                             inactive
16  CCC(C)Nc1c([N+](=O)[O-])cc(C(C)(C)C)cc1[N+](=O)[O-] (configuration not stated)                             inactive
17  CCOC1Oc2ccc(OS(C)(=O)=O)cc2C1(C)C (configuration not stated)                       82 µM (active)
